// reported phosphorylation enrichment per item
# Tested on: AncSZ;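 further: 11-residue human phosphosite peptides and single-mutation variants displayed on the E. coli surface, counted by deep sequencing, each peptide's frequency after selection divided by its frequency in the unselected input library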;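 further: frequency after pTyr selection over input frequency; kinase dosed for 20-30% of maximal phosphorylation in three min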
# procedure-text: phosphorylation enrichment, bacterial display (enrichment ratio); higher = better substrate or ligand; peptides without Tyr show the background
# print the numeric value only

In the examples that follow, each entry is paired with its recorded phosphorylation enrichment.
sequence-record	tgt	phosphorylation enrichment
AEYGLYGAMVR [VSX2_Y222]	AncSZ	0.99
GYRVCYTPDSR [PTPRF_Y451_Y450C]	AncSZ	1.07

Task: Give the measured phosphorylation enrichment of RIVEIYSRRLR [GCH1_Y175_Q180R] .
Result: 0.691

Task: Next: ITNLLYHLVGW [GBA_Y412_V414L]
Result: 1.09
